System: E. coli J53 Alone
Assay: MIC determination, isogenic E. coli strains
Type: cell-based
Test Conditions: J53 Alone, Table 4-1; CAMH broth, 20 μM Apo-Transferrin, 37° C., 18 hours
Value Kind: Mimimum Inhibitory Concentrations, J53 Alone (microgram/mL)

[
  {
    "Compound": "CC(C)(O/N=C(\\C(=O)N[C@@H]1C(=O)N2C(C(=O)O)=C(C=Cc3ccc(C[n+]4ccc(O)c(O)c4)cc3)CS[C@H]12)c1csc(N)n1)C(=O)O (mixture of isomers) [Compound 443]",
    "Cmp": "=",
    "Observed Result": 0.13
  },
  {
    "Compound": "CO/N=C(\\C(=O)N[C@@H]1C(=O)N2C(C(=O)O)=C(C=Cc3ccc(C[n+]4ccc(OC)c(OC)c4)cc3[N+](=O)[O-])CS[C@H]12)c1csc(N)n1 (mixture of isomers) [Compound 392]",
    "Cmp": "=",
    "Observed Result": 64
  },
  {
    "Compound": "CC(C)(O/N=C(\\C(=O)N[C@@H]1C(=O)N2C(C(=O)O)=C(C=Cc3ccc(C[N+]4(C5CCC5)CCc5ccc(O)c(O)c5C4)cc3)CS[C@H]12)c1csc(N)n1)C(=O)O (mixture of isomers) [Compound 444]",
    "Cmp": "=",
    "Observed Result": 0.5
  },
  {
    "Compound": "CC(C)(O/N=C(\\C(=O)N[C@@H]1C(=O)N2C(C(=O)O)=C(C=Cc3ccc(C[N+]4(C)CCc5cc(O)c(O)cc5C4)cc3)CS[C@H]12)c1nsc(N)n1)C(=O)O (mixture of isomers) [Compound 437]",
    "Cmp": "=",
    "Observed Result": 0.25
  },
  {
    "Compound": "CC(C)(O/N=C(\\C(=O)N[C@@H]1C(=O)N2C(C(=O)O)=C(C=Cc3ccc(C[n+]4ccc5cc(O)c(O)cc5c4)cc3)CS[C@H]12)c1csc(N)n1)C(=O)O (mixture of isomers) [Compound 435]",
    "Cmp": "≤",
    "Observed Result": 0.06
  }
]
